# TARGET OR SYSTEM: T1, mouse common cytokine receptor γ-chain (IL-2Rγ) (mouse, UniProt P34902 23-263, limits assumed)
# T1 construct: Recombinant mouse IL-2Rγ protein; also called mo IL-2R; mouse IL-2R gamma
# T1 sequence (looked up): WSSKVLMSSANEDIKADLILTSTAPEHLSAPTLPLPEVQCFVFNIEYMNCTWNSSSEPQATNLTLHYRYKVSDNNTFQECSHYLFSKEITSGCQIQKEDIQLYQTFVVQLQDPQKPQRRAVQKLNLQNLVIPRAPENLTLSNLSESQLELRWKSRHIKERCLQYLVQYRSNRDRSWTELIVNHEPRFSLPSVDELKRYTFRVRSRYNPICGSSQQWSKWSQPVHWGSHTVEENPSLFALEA
# TEST DETAILS: P.E. off-rate SPR
Entries annotated with measured koff
MEASURED PROPERTY: koff

[[record]]
binder = "FJ1427_P035MP07E01 (VHH, tested as periplasmic extract; also called Clone nr) VHH: QVQLQESGGGLVQAGGSLRLSCAASGRTLSRYAMGWFRQAPGKEREFVACDSWGGDTFYADSVEGRFTFSRDNAKNATYLQMNSLQPEDTAVYYCAGAPTSFATTAYSSSNSYTVWGQGTQVTVSL"
obs_value = "0.0132 s⁻¹"

[[record]]
binder = "FJ1427_P035MP07A02 (VHH, tested as periplasmic extract; also called Clone nr) VHH: QVQLVESGGGLVQAGGSLRLSCAASGRALSRLAMGWFRQAPGKEREFVVASSWGDDTFYADSVKGRFTFSRDNAKNTVYLQMNSLQPGDTAVYYCAAAPTSFATTAYSSSNSYAYWGQGTQVTASS"
obs_value = "0.0116 s⁻¹"

[[record]]
binder = "FJ1427_P035MP07F04 (VHH, tested as periplasmic extract; also called Clone nr; 606) VHH: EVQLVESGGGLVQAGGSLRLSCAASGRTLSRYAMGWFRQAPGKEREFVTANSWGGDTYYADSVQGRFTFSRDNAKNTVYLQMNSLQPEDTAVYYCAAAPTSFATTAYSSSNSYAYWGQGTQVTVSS"
obs_value = "0.115 s⁻¹"

[[record]]
binder = "FJ1427_P035MP07C05 (VHH, tested as periplasmic extract; also called Clone nr; 611) VHH: EVQLVESGGGLVQPGGSLRLSCAASGRALSRLAMGWFRQAPGKEREFVVASSWGDDTFYADSVKGRFTFSRDNAKNTVYLQMNSLQPGDTAVYYCAAAPTSFATTAYSSSNSYAYWGQGTQVTVSS"
obs_value = "0.0128 s⁻¹"

